experiment: competitive ABPP of pPAFAH versus proteome hydrolases – biochemical, gel-based, FP-Rh fluorescence, complex proteome, SAR compounds, selectivity assay for pPAFAH inhibitor project, SAR follow-up (AID 588774)
assayConditions: LYPLA2, anti-targets inhibited, at 10 µM
Catalogue of compounds with associated anti-target count
readout: anti-target count

lineNotation | readout | val
Cc1cc(N2CCN(C(=O)Oc3ccc(C4CCCC4)cc3)CC2)c2ccccc2n1 | anti-target count | 0
COc1ccc(-c2cnn(C(=O)N3CCN(c4cc(C)nc5ccccc45)CC3)n2)cc1 | anti-target count | 8
Cc1cc(N2CCN(C(=O)n3oc4cc(Cl)ccc4c3=O)CC2)c2ccccc2n1 | anti-target count | 3
Cc1cc(N2CCN(C(=O)n3ncc(-c4ccccc4)n3)CC2)c2ccccc2n1 | anti-target count | 9

----------
experiment: competitive ABPP of pPAFAH versus proteome hydrolases – biochemical, gel-based, FP-Rh fluorescence, complex proteome, SAR compounds, selectivity assay for pPAFAH inhibitor project, SAR follow-up (AID 588774)
assayConditions: ABHD4, anti-targets inhibited, at 10 µM

lineNotation | anti-target count
Cc1cc(N2CCN(C(=O)n3oc4cc(Cl)ccc4c3=O)CC2)c2ccccc2n1 | 3
O=C(Oc1noc2cc(Cl)ccc12)N1CCOCC1 | 3
Cc1cc(N2CCN(C(=O)n3ncc(-c4ccccc4)n3)CC2)c2ccccc2n1 | 9
Cc1cc(N2CCN(C(=O)Oc3ccc(-n4cccc4)cc3)CC2)c2ccccc2n1 | 0
Cc1cc(N2CCN(C(=O)Oc3ccc([N+](=O)[O-])cc3)CC2)c2ccccc2n1 | 2

----------
System: FAAH
experiment: competitive ABPP of pPAFAH versus proteome hydrolases – biochemical, gel-based, FP-Rh fluorescence, complex proteome, SAR compounds, selectivity assay for pPAFAH inhibitor project, SAR follow-up (AID 588774)
assayConditions: at 10 µM
Active and inactive are the calls of the source.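 Rule for the calls: active = target enzyme inhibited at least 50% at a set dose, and selective over every off-target enzyme by a set factor; inactive = weaker inhibition or too little selectivity.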
Outcome codes: active, inactive

lineNotation | discreteLabel
Cc1cc(N2CCN(C(=O)Oc3ccc(C(F)(F)F)cc3)CC2)c2ccccc2n1 | inactive
O=C(Oc1noc2cc(Cl)ccc12)N1CCOCC1 | active
COc1ccc(-c2cnn(C(=O)N3CCN(c4cc(C)nc5ccccc45)CC3)n2)cc1 | active
Cc1cc(N2CCN(C(=O)Oc3ccc(-c4ccccc4)cc3)CC2)c2ccccc2n1 | inactive
O=C(Oc1noc2cc(Cl)ccc12)N1CCCCC1 | active

Data credit: PubChem BioAssay AID588774
